- System: VISA clinical isolates of MRSA (VI-MRSA) and of MSSA (VI-MSSA)
- protocol_text: microbe, parasite or virus in culture
- Assay type: cell-based, Staphylococcus aureus
- condition_details: Staphylococcus aureus, HIP09735, VI-MRSA, America
Where a name gives a salt, the structure may show the parent alone.
Answer each item with its documented MIC.

Please give MIC, item by item, for the list that follows.
1. Cc1cc(=O)n(C)c2c3c4c(cc12)c(C)cc(=O)n4CO3
2. NC1CCN(c2nc3c(cc2F)c(=O)c(C(=O)O)cn3-c2ccc(F)cc2F)C1 (centres unmarked) [TFLX, tosufloxacin tosylate]
3. Cc1onc(-c2ccccc2)c1C(=O)N[C@@H]1C(=O)N2[C@@H]1SC(C)(C)[C@@H]2C(=O)O
4. CN[C@H](CC(C)C)C(=O)N[C@H]1C(=O)N[C@@H](CC(N)=O)C(=O)N[C@H]2C(=O)N[C@H]3C(=O)N[C@H](C(=O)N[C@H](C(=O)O)c4cc(O)cc(O)c4-c4cc3ccc4O)[C@H](O)c3ccc(c(Cl)c3)Oc3cc2cc(c3O[C@@H]2O[C@H](CO)[C@@H](O)[C@H](O)[C@H]2O[C@H]2C[C@](C)(N)[C@H](O)[C@H](C)O2)Oc2ccc(cc2Cl)[C@H]1O

1. 0.5 µg/mL
2. > 128 µg/mL
3. 512 µg/mL
4. 4 µg/mL

The recorded MIC for entry "CCn1cc(C(=O)O)c(=O)c2cc(F)c(N3CCNCC3)cc21" equals > 128 µg/mL

====

- System: VRSA clinical isolates
- protocol_text: microbe, parasite or virus in culture
- Format: cell-based
- condition_details: Staphylococcus aureus, VRS2, VRSA, Pennsylvania
reported_metric: MIC (µg/mL)
One number for each entry, in µg/mL.

Use these answered entries as a reference point.
| compound | unit_name | MIC |
| --- | --- | --- |
| C[C@@H]1CN(c2c(F)c(N)c3c(=O)c(C(=O)O)cn(C4CC4)c3c2F)C[C@H](C)N1 | µg/mL | 8 |
| CC1COc2c(N3CCN(C)CC3)c(F)cc3c(=O)c(C(=O)O)cn1c23 (stereo not shown) | µg/mL | 32 |
| C[C@H]1COc2c(N3CCN(C)CC3)c(F)cc3c(=O)c(C(=O)O)cn1c23 | µg/mL | 16 |

Please give MIC, item by item, for the list that follows.
1. Cc1cc(=O)n(C)c2c3c4c(cc12)c(C)cc(=O)n4CO3
2. Cc1cc(=O)n2c3c(c4c(cc13)c(CO)cc(=O)n4C)OC2

[0.125, 0.25]

====

- Test system: VISA clinical isolates of MRSA (VI-MRSA) and of MSSA (VI-MSSA)
- protocol_text: microbe, parasite or virus in culture
- Assay type: cell-based, Staphylococcus aureus
- condition_details: Staphylococcus aureus, P1V44, VI-MSSA, Belgium
Structures can show the parent of a compound that is named as a salt.
Response field label: string, one of 1.0 (MIC strictly below 2 µg/mL) or 0.0.

Some solved cases for reference:
| compound | assay_target | group |
| --- | --- | --- |
| NC1CCN(c2nc3c(cc2F)c(=O)c(C(=O)O)cn3-c2ccc(F)cc2F)C1 (stereo not drawn) [TFLX, tosufloxacin tosylate] | VISA clinical isolates of MRSA (VI-MRSA) and of MSSA (VI-MSSA) | 0.0 |
| Cc1cc(=O)n(C)c2c3c4c(cc12)c(C)cc(=O)n4CO3 [DNM, deoxynybomycin] | VISA clinical isolates of MRSA (VI-MRSA) and of MSSA (VI-MSSA) | 1.0 |
| CC1COc2c(N3CCN(C)CC3)c(F)cc3c(=O)c(C(=O)O)cn1c23 (stereo not drawn) [OFLX, ofloxacin] | VISA clinical isolates of MRSA (VI-MRSA) and of MSSA (VI-MSSA) | 0.0 |
| C[C@H]1COc2c(N3CCN(C)CC3)c(F)cc3c(=O)c(C(=O)O)cn1c23 [LVFX, levofloxacin] | VISA clinical isolates of MRSA (VI-MRSA) and of MSSA (VI-MSSA) | 0.0 |

Does this compound meet the criterion MIC < 2 µg/mL? CCn1cc(C(=O)O)c(=O)c2cc(F)c(N3CCNCC3)cc21 [NFLX, norfloxacin]
0.0

Does this compound meet the criterion MIC < 2 µg/mL? C[C@@H]1CN(c2c(F)c(N)c3c(=O)c(C(=O)O)cn(C4CC4)c3c2F)C[C@H](C)N1 [SPFX, sparfloxacin]
0.0

Does this compound meet the criterion MIC < 2 µg/mL? Cc1cc(=O)n2c3c(c4c(cc13)c(CO)cc(=O)n4C)OC2 [NM, nybomycin]
1.0

====

Answer each item with its documented MIC.
- System: MRSA, CA-MRSA and MSSA of Staphylococcus aureus
- protocol_text: MIC measurement, Test Example 4 (MRSA, CA-MRSA and MSSA strains)
- Type: cell-based
- condition_details: Staphylococcus aureus, ISA62-1, MRSA
One number for each entry, in µg/mL.

Use these answered entries as a reference point.
| compound | assay_target | reported_metric | unit_name | obs_value |
| --- | --- | --- | --- | --- |
| Cc1onc(-c2ccccc2)c1C(=O)N[C@@H]1C(=O)N2[C@@H]1SC(C)(C)[C@@H]2C(=O)O | MRSA, CA-MRSA and MSSA of Staphylococcus aureus | MIC | µg/mL | 8 |
| CN[C@H](CC(C)C)C(=O)N[C@H]1C(=O)N[C@@H](CC(N)=O)C(=O)N[C@H]2C(=O)N[C@H]3C(=O)N[C@H](C(=O)N[C@H](C(=O)O)c4cc(O)cc(O)c4-c4cc3ccc4O)[C@H](O)c3ccc(c(Cl)c3)Oc3cc2cc(c3O[C@@H]2O[C@H](CO)[C@@H](O)[C@H](O)[C@H]2O[C@H]2C[C@](C)(N)[C@H](O)[C@H](C)O2)Oc2ccc(cc2Cl)[C@H]1O | MRSA, CA-MRSA and MSSA of Staphylococcus aureus | MIC | µg/mL | 1 |
| CCn1cc(C(=O)O)c(=O)c2cc(F)c(N3CCNCC3)cc21 | MRSA, CA-MRSA and MSSA of Staphylococcus aureus | MIC | µg/mL | 1 |
| C[C@@H](O)[C@H]1C(=O)N2C(C(=O)O)=C(SCCN=CN)C[C@H]12 | MRSA, CA-MRSA and MSSA of Staphylococcus aureus | MIC | µg/mL | 2 |
| C[C@H]1COc2c(N3CCN(C)CC3)c(F)cc3c(=O)c(C(=O)O)cn1c23 | MRSA, CA-MRSA and MSSA of Staphylococcus aureus | MIC | µg/mL | 0.25 |

Now take the following compound into account.
The recorded MIC for entry CC1COc2c(N3CCN(C)CC3)c(F)cc3c(=O)c(C(=O)O)cn1c23 (stereo not shown) equals 0.25

====

- System: Enterococcus faecalis
- protocol_text: MIC measurement, Test Example 6 (enterococcus)
- Format: cell-based
- condition_details: Enterococcus faecalis, E. faecalis 36-15730, quinolone-susceptible enterococci; read-out: MIC
- Description: Each of the bacterial strains listed in Table 1-1 was shake-cultured at 37° C. overnight in 4 mL of a medium (Tryptical Soy Broth: TSB, product of Becton Dickinson and Company). FDA209P was used as a control. […] After completion of culturing, the growth of the bacteria was visually determined based on turbidity to measure MIC in each bacterial strain. […]
Counter-ions that a name gives are not always drawn.
Answer each item with its documented MIC.

Use these answered entries as a reference point.
| molecule | reported_metric | obs_value |
| --- | --- | --- |
| CC1COc2c(N3CCN(C)CC3)c(F)cc3c(=O)c(C(=O)O)cn1c23 (stereo not shown) | MIC | 4 µg/mL |
| Cc1cc(=O)n(C)c2c3c4c(cc12)c(C)cc(=O)n4CO3 | MIC | 64 µg/mL |
| NC1CCN(c2nc3c(cc2F)c(=O)c(C(=O)O)cn3-c2ccc(F)cc2F)C1 (stereo not shown) [TFLX, tosufloxacin tosylate] | MIC | 0.5 µg/mL |
| Cc1cc(=O)n2c3c(c4c(cc13)c(CO)cc(=O)n4C)OC2 | MIC | > 64 µg/mL |

Please give MIC, item by item, for the list that follows.
1. C[C@H]1COc2c(N3CCN(C)CC3)c(F)cc3c(=O)c(C(=O)O)cn1c23
2. CCn1cc(C(=O)O)c(=O)c2cc(F)c(N3CCNCC3)cc21
3. C[C@@H]1CN(c2c(F)c(N)c3c(=O)c(C(=O)O)cn(C4CC4)c3c2F)C[C@H](C)N1

1. 2 µg/mL
2. 8 µg/mL
3. 1 µg/mL

====

- System: methicillin-susceptible S. aureus (MSSA), MRSA and mutants thereof
- protocol_text: MIC measurement, Test Example 3 (MSSA, MRSA and sequential gyrA/grlA quinolone-resistant mutants)
- Format: cell-based, Staphylococcus aureus
- condition_details: Staphylococcus aureus, MR5867-3, third-step mutant, further grlA S80F
Where a name gives a salt, the structure may show the parent alone.
Answer each item with its documented MIC.

Use these answered entries as a reference point.
| compound | MIC |
| --- | --- |
| CC1COc2c(N3CCN(C)CC3)c(F)cc3c(=O)c(C(=O)O)cn1c23 (stereo not shown) | 64 µg/mL |
| NC1CCN(c2nc3c(cc2F)c(=O)c(C(=O)O)cn3-c2ccc(F)cc2F)C1 (stereo not shown) [TFLX, tosufloxacin tosylate] | > 128 µg/mL |
| CCn1cc(C(=O)O)c(=O)c2cc(F)c(N3CCNCC3)cc21 | > 128 µg/mL |

Now take the following compound into account.
The recorded MIC for entry "Cc1cc(=O)n(C)c2c3c4c(cc12)c(C)cc(=O)n4CO3" equals ≤ 0.063 µg/mL
